System: SARS-CoV-2 isolate USA-WI1/2020
Assay: Antiviral activity against live SARS-CoV-2 in UNCN1T cells
Type: cell-based
Details: read-out: IC50, inhibition of SARS-CoV-2 replication
Measured Attribute: IC50
Returns: string containing the numeric result and its unit.

Lab request: please report IC50 under test system SARS-CoV-2 isolate USA-WI1/2020 for CN1C(=O)c2ccccc2[S+]([O-])c2cc([N+](=O)[O-])ccc2S1(=O)=O (stereo not shown) [MU-UNMC-1]
1160 nM

###

Biological target: ACE2: SARS-CoV-2 Spike RBD (UniProt P0DTC2+Q9BYF1)
Assay: ACE2: SARS-CoV-2 Spike RBD inhibitor screening assay
Measured Attribute: IC50

Molecule: CN1C(=O)c2ccccc2[S+]([O-])c2cc([N+](=O)[O-])ccc2S1(=O)=O (stereo not shown) [MU-UNMC-1]
IC50: < 250 nM

Entry under review: CCn1c(SCC(=O)N2CCCc3ccccc32)nnc1-c1cccs1 [MU-UNMC-6] . Reported IC50?
1910 nM

Entry under review: OC(CNCCNc1ncccc1C(F)(F)F)Cn1ccc2ccccc21 (stereo not shown) [MU-UNMC-7] . Reported IC50?
> 5000 nM

Entry under review: CN(C)/C=C1\N=C(c2cccnc2Oc2ccc(Cl)cc2)OC1=O [MU-UNMC-8] . Reported IC50?
> 5000 nM
